# Test system: IGROV-1
# Test Details: NCI tumour cell line growth inhibition, 48 h
Active and inactive are the calls of the source. Cut-off read from the data, not from the text of the source: active = GI50 up to about 1.1 µM and inactive = higher.
Parameter call: string, one of label 1 = active, label 0 = inactive

Solved entries (count: 5):
CC1CC=CC(O)C1 (stereo not drawn): label 0
COC(=O)C1CCC2(C)[C@H](CCC3O[C@]32C)[C@@]1(C)CC(=O)c1ccoc1 (stereo partly drawn): label 0
COC(=O)c1cccn1C(=O)n1cccc1: label 0
CCOC(=O)c1cc(NC(=O)N(CCC#N)CCN(C(=O)N[C@@H](Cc2ccccc2)C(=O)N[C@@H](CC(C)C)C(=O)NC)c2ccccc2)ccc1OC: label 0
CN1CCCC2[C@@H]3CCC4=C(O)C(=O)CC[C@]4(C)C3CC[C@@]21C (stereo partly drawn): label 0

Hi, sorry to bother you, what did the test record for CNC1C(=O)C(C)C(O)(C(CC(C)C(O)/C=C/C=C/CNC(=O)C(C)(C)C(O)\C(C)=C/C=C\C=C\Cc2cnc(C)o2)OC)C12C(=O)OC2C.CNC1C(=O)C(C)C(O)(C(CC(C)C(O)/C=C/C=C/CNC(=O)C(C)(C)C(O)\C(C)=C/C=C\C=C\Cc2cnc(C)o2)OC)C12C(=O)OC2COC (stereo not drawn) ?
label 1

Hi, sorry to bother you, what did the test record for Cc1nc2ccccc2c(=O)n1NC(=S)Nc1cccc(Cl)c1 ?
label 0

Hi, sorry to bother you, what did the test record for Cc1cc(C)c(C2=NO[C@@H]3[C@H]2C(=O)C=C2N(Cc4ccccc4)CCO[C@@]23O)c(C)c1 ?
label 0

Hi, sorry to bother you, what did the test record for N#Cc1c(NC(=O)CCC(=O)O)ccc2ccccc12 ?
label 0

Hi, sorry to bother you, what did the test record for CCOC(=O)C1(C)CCCc2sc(N)c(C#N)c21 (stereo not drawn) ?
label 0

Hi, sorry to bother you, what did the test record for CCN(CC)C(=O)C1=C(C)NC(C)=C(C(=O)N(CC)CC)C1 ?
label 0

Hi, sorry to bother you, what did the test record for Cc1c(C(=O)CC(=O)C(=O)Nc2cc(Cl)ccc2Cl)[n+]([O-])c2ccccc2[n+]1[O-] ?
label 0

Hi, sorry to bother you, what did the test record for COc1ccc(C(=O)C(c2ccc(OC)cc2)C2OC(=O)C(Cl)=C2Cl)cc1 (stereo not drawn) ?
label 0

Hi, sorry to bother you, what did the test record for COCC1N=C(c2cc(OC)c(OC)c(OC)c2-c2cc3c(cc2[C@@H](C)O)OCO3)O[C@H]1c1ccccc1 (stereo partly drawn) ?
label 0

Hi, sorry to bother you, what did the test record for CCOC(=O)c1cc(C)nc2c1c(=O)n(-c1ccccc1)c(=O)n2CCCCN1CCN(c2ccccc2)CC1 ?
label 0

Hi, sorry to bother you, what did the test record for COc1cc(C2c3cc4c(cc3[C@@H](Nc3cccc([N+](=O)[O-])c3)C3COC(=O)[C@H]23)OCO4)cc(OC)c1O (stereo partly drawn) ?
label 0

Hi, sorry to bother you, what did the test record for CC(=O)/N=C1/N(/C=C2\C(=O)Oc3ccccc3C2=O)C(=O)/C(=C/c2cccc(Cl)c2Cl)N1C ?
label 0

Hi, sorry to bother you, what did the test record for O=C(O)CCCSc1nc2ccccc2s1 ?
label 0

---

# Tested on: HOP-92
# Test Details: NCI tumour cell line growth inhibition, 48 h
Activity calls are given as the source filed them. Cut-off read from the data, not from the text of the source: active = GI50 up to about 1.1 µM and inactive = higher.
Measurement Kind: GI50

NC(Cc1ccc2nc3c4ccccc4c(=O)cc-3oc2c1)C(=O)O (stereo unspecified): > 100 µM (inactive)
COC(=O)c1c2c(cc3c1CC1(C3)Cc3cc4c(c(C(C)=O)c3C1)CCC4)C=CC2 (stereo unspecified): > 31.6 µM (inactive)
C=C1C(=O)C23CC1C[C@H](OC(C)=O)C2C1(C)C(OC(C)=O)C[C@H](O)C(C)(C)[C@H]1C(O)[C@@H]3OC(C)=O (stereo partly specified): 9.29 µM (inactive)
CCCCCCC1=NOC(C(c2cc[nH]c2)N(C)[C@H](C(=O)OC)C(C)C)C1 (stereo partly specified): 51.4 µM (inactive)
COc1cc(C(C)=O)cc(C(=O)N(C(C)C)C(C)C)c1[Si](C)(C)C: 99.3 µM (inactive)

Reported GI50 for HOP-92, given CC(C)(C)c1nc2c(o1)C(=O)c1ccccc1C2=O ?
3.05 µM (inactive)

---

# System: ACHN
# Test Details: NCI tumour cell line growth inhibition, 48 h
Calls of active or inactive are those of the source. Cut-off read from the data, not from the text of the source: active = GI50 up to about 1.1 µM and inactive = higher.
Parameter call: string, one of active, inactive

Solved entries (count: 2):
CC1CNC(c2ccc(COc3ccc(C4=NC(C)CN4)cc3)cc2)=N1 (stereo unspecified): inactive
CSC1CC2C(CC1(C)O)C2(C)C (stereo unspecified): inactive

Now turn to the next compound.
Hi, sorry to bother you, what did the test record for N#CC12Cc3ccc4c(c3-c3cccc(c31)CCN2C(=O)c1ccccc1)OCO4 (stereo unspecified) ?
inactive

---

Task for the reader: assign each of the following molecules its reported GI50.
# Test system: SW-620
# Test Details: NCI tumour cell line growth inhibition, 48 h
The source made the active and inactive calls. Cut-off read from the data, not from the text of the source: active = GI50 up to about 1.1 µM and inactive = higher.

As a guide, the following entries are already answered.
CN(C)c1ccc(/C=C(\NC(=O)c2ccccc2)C(=O)NC(CCC(=O)O)C(=O)O)cc1 (stereo not given): > 100 µM (inactive)
Clc1ccc(NCNC2Nc3ccccc3N2)cc1Cl: 27.6 µM (inactive)
N#CC12Cc3ccc4c(c3-c3cccc(c31)CCN2C(=O)c1ccccc1)OCO4 (stereo not given): > 100 µM (inactive)
O=[S@@]1Nc2ccc(Br)cc2S1: 0.74 µM (active)
COc1cc(C(C)=O)cc(C(=O)N(C(C)C)C(C)C)c1[Si](C)(C)C: > 100 µM (inactive)

For every item in the list below, what is its measured GI50?
1. C[C@]12CC[C@@H]3c4ccc(OP(=O)(O)O)cc4CC[C@H]3[C@@H]1CCC2=O
2. CCCCOC(=O)C(O)Cc1ccoc1 (stereo not given)
3. CCN(CC)C(=O)C1=C(C)NC(C)=C(C(=O)N(CC)CC)C1
4. Nc1ccc(-c2nc3ccccc3s2)cc1Cl
5. CC(C)(C)[Si](C)(C)OCC1OC(n2cnc3c(=O)[nH]c(N)nc32)C(O[Si](C)(C)C(C)(C)C)C1O[Si](C)(C)C(C)(C)C (stereo not given)

1: 63.7 µM (inactive); 2: > 100 µM (inactive); 3: > 100 µM (inactive); 4: > 100 µM (inactive); 5: 2.47 µM (inactive)

---

# Test system: SR
# Test Details: NCI tumour cell line growth inhibition, 48 h
Calls of active or inactive are those of the source. No stated cut-off is given here; in the data, active = GI50 up to about 1.1 µM and inactive = higher.
Measurement Kind: GI50

CCOC(=O)C(Cc1c(-c2[nH]c3ccccc3c2CC(NC(=O)CNC(C)=O)C(=O)OCC)[nH]c2ccccc12)NC(=O)CNC(C)=O (centres undefined): 40.4 µM (inactive)
CCOC(=O)c1cc(C)nc2c1c(=O)n(-c1ccccc1)c(=O)n2CCCCN1CCN(c2ccccc2)CC1: 19 µM (inactive)
O=C(O)c1ccc(Nc2nc3ccccc3nc2-c2cccs2)cc1: 65.9 µM (inactive)

Look up GI50 for this compound: COc1cc(S(=O)(=O)Nc2ccc(-c3csc(N4C(=O)C(C)SC4c4cccc(Oc5ccccc5)c4)n3)cc2)ccc1Cl (centres undefined)
26.3 µM (inactive)

---

# System: NCI-H460
# Test Details: NCI tumour cell line growth inhibition, 48 h
The source made the active and inactive calls. Rule as the data show it: active = GI50 up to about 1.1 µM and inactive = higher.
Parameter call: string, one of yes (1) (active), no (0) (inactive)

Solved entries (count: 5):
COC(=O)CC(C(C(C)=O)C(=O)OCc1ccccc1)N1C(=O)OCC1c1ccccc1 (stereo not drawn): no (0)
O=C(O)C1CCCCN1CCc1c[nH]c2ccccc12 (stereo not drawn): no (0)
Cc1cn2c(/C=N/NC(=N)N)c(-c3cc([N+](=O)[O-])c(Cl)cc3Cl)nc2s1: no (0)
COc1cc(C2C3=C(COC3=O)Oc3cc4c(cc32)OCO4)cc(OC)c1O (stereo not drawn): yes (1)
CSc1nn(C)cc2nc(C)nc1-2: no (0)

Hi, sorry to bother you, what did the test record for c1csc(-c2ccc(-c3ccc(-c4ccc(-c5cccs5)s4)s3)s2)c1 ?
no (0)

Hi, sorry to bother you, what did the test record for c1ccc(-c2sc(-c3ccccc3)c3c2C2CCC3C2)cc1 ?
no (0)

Hi, sorry to bother you, what did the test record for O=CC(O)C(O)C(O)COc1cc(CO)cc2c1C(=O)c1ccccc1C2=O (stereo not drawn) ?
no (0)

Hi, sorry to bother you, what did the test record for O=C1OC(CN2CCN(c3ccccc3)CC2)CN1C(=S)Nc1ccccc1 (stereo not drawn) ?
no (0)

Hi, sorry to bother you, what did the test record for Nc1nc(Cl)cc(NCC2(O)CC2)n1 ?
no (0)

Hi, sorry to bother you, what did the test record for CC(c1ccccc1)N1CC(C)(c2ccccc2)N(O)C(c2ccccc2)C1C (stereo not drawn) ?
no (0)

Hi, sorry to bother you, what did the test record for O=C(Nc1ccc(F)cc1)C(=O)C(C(=O)c1ccccc1F)C1OC(=O)c2ccccc21 (stereo not drawn) ?
no (0)

Hi, sorry to bother you, what did the test record for CN(C)CCCNC(=O)c1cc(NC(=O)c2cc(NC(=O)[C@@H]3C[C@H]3C(=O)Nc3cc(C(=O)Nc4cc(C(=O)NCCCN(C)C)n(C)c4)n(C)c3)cn2C)cn1C ?
no (0)

Hi, sorry to bother you, what did the test record for C/C(=N\NC(=O)c1ccccc1O)C1=CNc2ccccc2S1 ?
no (0)

Hi, sorry to bother you, what did the test record for CC1CC=CC(O)C1 (stereo not drawn) ?
no (0)

Hi, sorry to bother you, what did the test record for c1cc(CSSCc2ccncc2)ccn1 ?
no (0)

Hi, sorry to bother you, what did the test record for Cn1cnc([N+](=O)[O-])c1SCC(=O)O ?
no (0)

Hi, sorry to bother you, what did the test record for COc1ccc(C(=O)C(c2ccc(OC)cc2)C2OC(=O)C(Cl)=C2Cl)cc1 (stereo not drawn) ?
no (0)

Hi, sorry to bother you, what did the test record for CC1(C)/C(=N\NC(N)=O)C2CCC1C2 (stereo not drawn) ?
no (0)
